study_target: Serotonin (5-Hydroxytryptamine) 5-HT1B (Rattus norvegicus)
Construct: from tissue
Sequence (P28564 whole entry): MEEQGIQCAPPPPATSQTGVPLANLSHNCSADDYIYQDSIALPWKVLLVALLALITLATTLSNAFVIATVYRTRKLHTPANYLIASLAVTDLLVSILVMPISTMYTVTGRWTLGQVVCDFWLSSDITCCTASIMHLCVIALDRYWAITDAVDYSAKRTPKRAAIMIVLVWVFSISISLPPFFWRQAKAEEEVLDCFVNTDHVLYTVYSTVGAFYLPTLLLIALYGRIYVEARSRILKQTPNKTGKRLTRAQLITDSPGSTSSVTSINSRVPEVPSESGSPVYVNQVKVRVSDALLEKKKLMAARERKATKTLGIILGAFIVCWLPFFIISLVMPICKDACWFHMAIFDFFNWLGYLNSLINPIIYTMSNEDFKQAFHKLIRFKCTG
run_description: Assay 271200 radioligand binding, 5-HT1B
Parameters: species or system Wistar Rat
test_context: 10 μM
observable: inhibition at 10 µM (%)
One number for each entry, in %.

Consider the following illustrative entries.
FC(F)(F)c1ccc2c(c1)N(CCCN1CCNCC1)c1ccccc1S2 [ICI-685]: 10
FC(F)(F)c1ccc2c(c1)N(CCCC1CCNCC1)c1ccccc1S2 [ICI-824]: 6

Provide inhibition at 10 µM for all items below, preserving their order.
1. CNCC(=O)NCCN1CCC(CCCN2c3ccccc3Sc3ccc(C(F)(F)F)cc32)CC1 [ICI-849]
2. NCC(=O)NCCN1CCN(CCCN2c3ccccc3Sc3ccc(C(F)(F)F)cc32)CC1 [ICI-735]
3. CN(C)S(=O)(=O)c1ccc2c(c1)N(CCCN1CCN(CCN)CC1)c1ccccc1S2 [ICI-715]
4. NCCCN1CCC(CCCN2c3ccccc3Sc3ccc(C(F)(F)F)cc32)CC1 [ICI-847]

a:
1: -2; 2: 86; 3: 90; 4: -33
